settings: human gut metagenome, 24 h, 2 µM; also: call rule not given here
Metric: Bacterial Biotransformation

1) CCN(CC)CCNC(=O)c1ccc(NC(C)=O)cc1 [ACECAINIDE] :: Compound metabolized
2) OCCN(CCO)c1nc(N2CCCCC2)c2nc(N(CCO)CCO)nc(N3CCCCC3)c2n1 :: Compound NOT metabolized
3) CCOC(=O)C1=C[C@]2(CC)CCCN3CCc4c(n1c1ccccc41)[C@@H]32 :: Compound NOT metabolized
4) COC(=O)C(c1ccccc1)C1CCCCN1 (stereo not given) [METHYLPHENIDATE] :: Compound metabolized
5) CC(=O)Oc1ccc(C(c2ccc(OC(C)=O)cc2)c2ccccn2)cc1 :: Compound metabolized
